System: Plasmodium falciparum
assayProtocol: Confirmatory screen in NF54 nanoGlo assay, in single point, at 2uM, 72h
Format: functional, Erythrocyte
measurementConditions: timepoint 72 hour
Screen size: about 4,800 compounds; about 420 (8.8%) showed an effect of 50% or more. Many of the other results were omitted from the sample, so strong results are more common in it than they were.
Each entry below carries its recorded % Inhibition.
Give the value, in units of %, as a plain number.

Example results:
Prompt line: Which % Inhibition is reported with Plasmodium falciparum for this entry: "CCCN(CCC)C(=O)CCC(=O)N[C@]1(C(F)(F)F)CCc2ccccc21" ?
Response line: 15

Prompt line: Which % Inhibition is reported with Plasmodium falciparum for this entry: "COc1ccc(COC(=O)c2cccnc2C)cn1" ?
Response line: -9

Prompt line: Which % Inhibition is reported with Plasmodium falciparum for this entry: CC(C)C(NC(=O)COc1ccccc1)C(=O)NCC(c1ccccc1Cl)c1c[nH]c2ccccc12 (stereo not drawn) ?
Response line: 69

Continuing:
Prompt line: Which % Inhibition is reported with Plasmodium falciparum for this entry: "Cc1cc(C)nc(NCCC[C@H]2CCCCO2)n1" ?
Response line: -6

Prompt line: Which % Inhibition is reported with Plasmodium falciparum for this entry: "Cc1ccccc1CNC(=O)[C@H]1CCCN(c2nc3ccccc3[nH]c2=O)C1" ?
Response line: -1

Prompt line: Which % Inhibition is reported with Plasmodium falciparum for this entry: "Cc1c(-c2nn3c(Cc4ccc(Cl)cc4)nnc3s2)cnn1-c1ccccc1" ?
Response line: -16

Prompt line: Which % Inhibition is reported with Plasmodium falciparum for this entry: "O=C(Cc1c[nH]c2ccccc12)Nc1ccc(Cl)c2ncccc12" ?
Response line: 5

Prompt line: Which % Inhibition is reported with Plasmodium falciparum for this entry: "NCc1ccc(O)c(Br)c1" ?
Response line: 2

Prompt line: Which % Inhibition is reported with Plasmodium falciparum for this entry: "Cc1cccc(CN(Cc2cccc(C)n2)C[C@H]2CCCCO2)n1" ?
Response line: 90

Prompt line: Which % Inhibition is reported with Plasmodium falciparum for this entry: "CNC(=O)COc1c(Cl)ccc(Cl)c1Br" ?
Response line: 0

Prompt line: Which % Inhibition is reported with Plasmodium falciparum for this entry: "Cc1cc(C)c(NC(=O)c2nnn(CC(=O)NCc3ccc(F)cc3)c2C)c(C)c1" ?
Response line: -9

Prompt line: Which % Inhibition is reported with Plasmodium falciparum for this entry: "COc1cc(CNC2CCCCC2)cc(Br)c1OCc1ccccc1Cl" ?
Response line: 5

Prompt line: Which % Inhibition is reported with Plasmodium falciparum for this entry: "Cn1ccc(NC(=O)C(=O)c2ccc(-c3ccccc3)cc2)n1" ?
Response line: 1

Prompt line: Which % Inhibition is reported with Plasmodium falciparum for this entry: "CNC(=O)c1cnc(C=Cc2cnc(-c3cccnc3)s2)s1" ?
Response line: 0

Prompt line: Which % Inhibition is reported with Plasmodium falciparum for this entry: "CNC(=O)[C@@H]1C[C@H](NCc2cc(OC)c(OC)c(OC)c2)CN1CC(c1ccccc1)c1ccccc1" ?
Response line: 63

Prompt line: Which % Inhibition is reported with Plasmodium falciparum for this entry: "Cc1ccccc1CNC(=O)[C@H]1CCCN(c2nc3cccnc3n(Cc3ccccc3)c2=O)C1" ?
Response line: -6

Prompt line: Which % Inhibition is reported with Plasmodium falciparum for this entry: "CCOC(=O)c1cnc(N2CCCC2)nc1C1CCN(C(=O)OC(C)(C)C)CC1" ?
Response line: -2

Prompt line: Which % Inhibition is reported with Plasmodium falciparum for this entry: Cc1cccc(CNC(=O)NC2CCOC2c2ccc(Cl)cc2)n1 (stereo not drawn) ?
Response line: -15

Prompt line: Which % Inhibition is reported with Plasmodium falciparum for this entry: "CC(=O)Nc1ccccc1CC(c1c[nH]c2ccccc12)c1c[nH]c2ccccc12" ?
Response line: 0

Prompt line: Which % Inhibition is reported with Plasmodium falciparum for this entry: "O=C(c1ccccc1)c1c[nH]c2c(F)cc(F)cc2c1=O" ?
Response line: -5

Prompt line: Which % Inhibition is reported with Plasmodium falciparum for this entry: "COc1cc(NC(=O)N2CC(c3noc(-c4ccccc4)n3)C2)cc(OC)c1OC" ?
Response line: 2

Prompt line: Which % Inhibition is reported with Plasmodium falciparum for this entry: "CN(C)c1noc(CN2CCc3ccc(F)cc3C2)n1" ?
Response line: 25

Prompt line: Which % Inhibition is reported with Plasmodium falciparum for this entry: "CC(C)CS(=O)(=O)Nc1ccccc1C(N)=O" ?
Response line: -5
